test system: HT29 colon; test: NCI tumour cell line growth inhibition, 48 h
test.readout: TGI

> print(dat)
                                    molecule       result
 1  C[N+]1(C)C/C(=C\c2ccncc2)C(=O)/C(=C/c2ccncc2)C1     > 100 µM
 2  CCOC(=O)[C@H]1Nc2ccc(OC)cc2C2c3ccccc3CC21 (stereo partly specified)     > 100 µM
 3  COC(=O)[C@@]12CCCC(=O)[C@@H]1[C@H]1CCCC[C@H]12     > 100 µM
 4             Cn1cnc2c(sc3nc4ccccc4n32)c1=N     > 100 µM
 5          CN(C)CCCOCCn1c2c(c3ccccc31)CCCC2      28.5 µM
 6  COc1ccc(Cl)cc1Nc1nc(C(F)(F)F)ccc1C(=O)N/N=C/c1cc(OC)c(OC)c(OC)c1      13.2 µM
 7  S=C(S)NCC1CCC(CNC(=S)S)CC1 (stereo unspecified)      42.3 µM
 8  Nc1ccc2[nH]c(C(=O)N3CC(CCl)c4c3cc(N)c3ccccc43)cc2c1 (stereo unspecified)  < 0.0229 µM
 9   NCCCCNCCCNC(=O)c1nc(-c2csc(CCN)n2)sc1Cl     > 100 µM
10  Cn1c2ccccc2c2c3c(c4c5ccccc5n(C)c4c21)C(=O)c1ccccc1C3=O     > 100 µM
11  CCOC(=O)C(CS)NC(=O)CCCCCCCC(=O)NC(CS)C(=O)OCC (stereo unspecified)     > 100 µM

====

TGI reference
tested on: SR leukemia; assay: NCI tumour cell line growth inhibition, 48 h
Where a SMILES comes first, the peptide text is derived from it. The star is where a group is joined. Boc = CC(C)(C)OC(=O)*; OBn = c1ccc(CO*)cc1

compound	TGI
Cc1ccc(C(=O)/C(C#N)=C/Nc2c(C)n(C)n(-c3ccccc3)c2=O)cc1	> 100 µM
[N-]=[N+]=Nc1ccc(CNc2cc(=O)[nH]c(=O)[nH]2)cc1	> 100 µM
FCc1ncc(-c2ccc(C(F)(F)F)cc2)c(NC2CCCCCC2)n1	> 10 µM
COC(=O)C1(Cc2ccccc2)Cc2ccccc2C1	> 100 µM
CCOC(=O)COS(=O)(=O)C(F)(F)F	49.1 µM
O=S1(=O)c2ccccc2NC(=S)CC1c1ccccc1 (centres undefined)	> 100 µM
S=c1nc(-c2cccnc2)[nH][nH]1	> 100 µM
O=c1[nH]nc(Cc2ccccc2)n1-n1cnnc1	> 100 µM
COc1cc(/C=C2/N=C(c3ccccc3)N(C3=NNC4(C(=O)N3)c3ccccc3-c3ccccc34)NC2=O)ccc1O	> 150 µg/mL
O=C(NCc1ccc(Cl)cc1)c1cc2sccc2nc1C(F)(F)F	> 100 µM
CSc1cc(N)ccc1N=Nc1ccc(S(N)(=O)=O)cc1	> 100 µM
NC(=O)c1ccc(C2C3=C(CCCC3=O)OC3=C2C(=O)c2ccccc2C3=O)cc1 (centres undefined)	5.73 µM
Cc1c(Cl)cccc1NC(=O)CC1C(=O)Nc2ccccc2S1(=O)=O (centres undefined)	30.3 µM
CN[C@@H]1C[C@H]2O[C@@](C)([C@@H]1OC)n1c3ccccc3c3c4c(c5c6ccccc6n2c5c31)C(=O)N[C@@H]4O	0.833 µM
COc1cc(C2SCC(=O)N2c2ccc(Oc3ccc(Cl)cc3)c(Cl)c2)cc(OC)c1OC (centres undefined)	> 100 µM
Nc1ccc(S(=O)(=O)NCc2nccs2)cc1	> 100 µM
O=c1[nH]c2cc3[nH]c4ncccc4c(=O)c3cc2[nH]1	> 10 µM
CCOC(=O)C(=O)Nc1c(C(C)C)cccc1C(C)C	> 100 µM
COC(=O)CCCCCN=Cc1c(O)c(O)c(C(C)C)c2cc(C)c(-c3c(C)cc4c(C(C)C)c(O)c(O)c(C=NCCCCCC(=O)OC)c4c3O)c(O)c12	9.61 µM
N.N.N.N.N.N.O=N[O-].[Br-].[Co+3].[Co+3].[OH3+].[OH3+]	> 100 µM
O=C(OC[C@H]1O[C@@H](OC(=O)c2cc(O)c(O)c(O)c2)[C@H](OC(=O)c2cc(O)c(O)c(O)c2)[C@@H](OC(=O)c2cc(O)c(O)c(O)c2)[C@@H]1OC(=O)c1cc(O)c(O)c(O)c1)c1cc(O)c(O)c(O)c1	> 100 µM
CCc1c(C)c(C#N)c(=S)n(C2OC(CO)C(O)C(O)C2O)c1C (centres undefined)	> 100 µM
CN(C)CCCOCCn1c2c(c3ccccc31)CCCC2	41 µM
CC(C)(C)OC(=O)NC(Cc1ccccc1)C(=O)NC(Cc1ccccc1)C(=O)NCC(=O)OCc1ccccc1 (stereo not drawn) (Boc-Phe-Phe-Gly-OBn; configuration not given here)	44.6 µM
Cn1cc(CNCC2CCN(c3ncc(C(=O)NO)cn3)CC2)c2ccccc21	> 53.9 µM
CC(C)(C)OC[C@H](O)CC#N	> 100 µM
CC1(COS(=O)(=O)OCC2(C)COS(=O)(=O)OC2)COS(=O)(=O)OC1	> 56.9 µM
O=C1NC2(CN3CCC2CC3)C(=O)N1CN(Cc1ccccc1)c1ccccc1 (centres undefined)	63.2 µM
COC(=O)[C@@H]1C[C@@]2(C3C=CN(C(=O)C(F)(F)F)C=C3)c3ccccc3N(C(=O)C(F)(F)F)[C@H]2N1C(=O)OC	> 100 µM
CC(=O)OC1[C@H]2c3cc4c(cc3CN3CCC(=C[C@@H]1O)C23)OCO4 (some centres undefined)	> 100 µM
CCN(CC)C1CC(n2cc(C)c(=O)[nH]c2=O)OC1CO (centres undefined)	> 100 µM
C=C1C(=O)OC2/C=C(\C=O)CC/C=C(\C)C(O)C[C@@H]12 (some centres undefined)	> 27.6 µM
CC(C)[C@H]1C(=O)N[C@@H](CCCN=C(N)N)C(=O)NCC(=O)N[C@@H](CC(=O)O)C(=O)N[C@H](Cc2ccccc2)C(=O)N1C	> 100 µM
Cc1ccc(-c2n[nH]c(=O)[nH]2)cc1[N+](=O)[O-]	> 100 µM
CC(=Nc1ccncc1)C(C)=Nc1ccncc1	67 µM
c1ccc2c(Cc3nnc4sc(SSc5nn6c(Cc7c[nH]c8ccccc78)nnc6s5)nn34)c[nH]c2c1	41.7 µM
O=C1CC(=O)OC(c2ccc([N+](=O)[O-])cc2)O1	9.09 µM
Cc1cc2c(=O)c3ccccc3[nH]c2c(C(=O)O)c1C	> 100 µM
O=C(CNc1ccc(Cl)cc1Cl)NC1C=Cc2ccc(S(=O)(=O)Nc3ccc(Cl)cc3Cl)cc2C1=O (centres undefined)	> 100 µM

====

system: T-47D breast; assay: NCI tumour cell line growth inhibition, 48 h
TGI reference
test.readout: TGI

> print(dat)
                                    compound  assay.target     result
 1  COc1cc(/C=N/Nc2nnc3c4ccccc4c4ncccc4c3n2)cc(OC)c1OC  T-47D breast    4.11 µM
 2                 Cc1sc2ccccc2[n+]1CCC(=O)O  T-47D breast   > 100 µM
 3  [N-]=[N+]=Nc1ccc(CNc2cc(=O)[nH]c(=O)[nH]2)cc1  T-47D breast   > 100 µM
 4     CC(C)CNC(=O)Cn1c(-c2ccccc2)cc2ccccc21  T-47D breast   > 100 µM
 5  O=c1[nH]c(N/N=C\C(O)C(O)C(O)CO)nc2ccccc12 (stereo not given)  T-47D breast   > 100 µM
 6                                NNc1nncn1N  T-47D breast   > 100 µM
 7  C=C1C(=O)O[C@H]2C[C@@]3(C)[C@H](O)CCC(=C)[C@@H]3[C@@H](OC(C)=O)[C@H]12  T-47D breast    29.5 µM
 8  Cc1ccc(-c2n[nH]c(=O)[nH]2)cc1[N+](=O)[O-]  T-47D breast   > 100 µM
 9  CC(C)[C@H]1C(=O)N[C@@H](CCCN=C(N)N)C(=O)NCC(=O)N[C@@H](CC(=O)O)C(=O)N[C@H](Cc2ccccc2)C(=O)N1C  T-47D breast  > 29.4 µM
10  COc1cc2nc(-c3ccc(C(F)(F)F)cc3)cc(OCCCN3CCCCC3)c2cc1OC  T-47D breast    22.4 µM

====

system: SK-MEL-2 melanoma; assay: NCI tumour cell line growth inhibition, 48 h
TGI reference
test.readout: TGI

> print(dat)
                                    molecule  test.readout       result
 1  C[C@]12CC[C@@H]3c4ccc(OC(=O)c5ccccc5)cc4CC[C@H]3[C@@H]1CC[C@@H]2Oc1c2ccccc2nc2ccccc12           TGI      > 50 µM
 2  CC(=O)Oc1ccc(C2COc3cc(OC(C)=O)c(OC(C)=O)cc3C2)cc1 (stereo not given)           TGI      41.5 µM
 3  C=C1C(=O)O[C@H]2C[C@@]3(C)[C@H](O)CCC(=C)[C@@H]3[C@@H](OC(C)=O)[C@H]12           TGI      37.6 µM
 4        O=[N+]([O-])c1ccc2c(c1)[O][Sn][O]2           TGI  > 150 µg/mL
 5  O=c1[nH]c2cc3[nH]c4ncccc4c(=O)c3cc2[nH]1           TGI      > 10 µM
 6  O=C1c2cccc3cccc(c23)C(=O)N1CCCNOCCONCCCN1C(=O)c2cccc3cccc(c23)C1=O           TGI     > 100 µM
 7             Cn1cnc2c(sc3nc4ccccc4n32)c1=N           TGI     > 100 µM
 8  N.N.N.N.N.N.O=N[O-].[Br-].[Co+3].[Co+3].[OH3+].[OH3+]           TGI     > 100 µM
 9  Cn1c2ccccc2c2c3c(c4c5ccccc5n(C)c4c21)C(=O)c1ccccc1C3=O           TGI     > 100 µM
10  CCc1c(C)c(C#N)c(=S)n(C2OC(CO)C(O)C(O)C2O)c1C (stereo not given)           TGI     > 100 µM

These measurements were taken from PubChem BioAssay (NCI).
